experimentDescription: Displacement of [3H]BTX-B from neurotoxin site 2 of voltage gated sodium channel in rat cerebral cortex synaptoneurosomes after 30 mins by scintillation counting
Type: tissue-based
Recorded log10 of IC50 for the following compounds
The figures below represent log10 of IC50, where IC50 is stated in µM.

# annotated cases, reported log10 of IC50 shown
| mol | readoutType | numericReadout |
| --- | --- | --- |
| Cc1cccc(N2C(N)=NC(N)=NC23CCCCC3)c1 | log10 of IC50 | 0.67 |
| CC1(C)N=C(N)N=C(N)N1Cc1ccc(Cl)c(Cl)c1 | log10 of IC50 | 1.28 |
| Nc1nc(CCl)nc(Nc2cccc([N+](=O)[O-])c2)n1 | log10 of IC50 | 2.28 |
| NC1=NC2(CCCCC2)N(c2ccc(Cl)cc2)C(N)=N1 | log10 of IC50 | 0.64 |
| COc1ccc(N2C(N)=NC(N)=NC23CCCCC3)cc1 | log10 of IC50 | 0.89 |

Briefly, log10 of IC50 measured for CC1(C)N=C(N)N=C(Nc2ccc(Cl)cc2)N1 : 1.39

// log10 of IC50 lookup, compound = Cc1nc(N)nc(Nc2cccc(Cl)c2)n1 , result: 2.39

Looking up Cc1ccccc1N1C(N)=NC(N)=NC12CCCCC2 , I see its log10 of IC50 listed as 0.96

Kindly note the recorded log10 of IC50 for COc1cccc(N2C(N)=NC(N)=NC23CCCCC3)c1 , which is 0.71

Summary for this compound, Cc1ccc(N2C(N)=NC(N)=NC23CCCCC3)cc1 : log10 of IC50 is 0.62

Cited source: ChEMBL document CHEMBL1155206
